- Test system: M19-MEL
- measurement.description: NCI tumour cell line growth inhibition, 48 h
Active and inactive are the calls of the source. Rule as the data show it: active = GI50 up to about 1.1 µM and inactive = higher.
readout.name: GI50

For each entry beneath this line, provide reported GI50.
1. C/C(=N\NC(=S)Nc1ccc([N+](=O)[O-])cc1S(=O)(=O)O)c1ccccn1
2. CCCCCCCC1(c2ccc(N)cc2)CCC(=O)NC1=O (stereo not drawn)
3. CCc1cccc(CC)c1NC(=O)C(C#N)C1=C(Cl)C(=O)c2ccccc2C1=O (stereo not drawn)

Key:
1. 43.8 µM (inactive)
2. 37.8 µM (inactive)
3. 19.1 µM (inactive)

----------
Can you tell me GI50 for the items I'm about to list?
- Tested on: UACC-62
- measurement.description: NCI tumour cell line growth inhibition, 48 h
Active and inactive are the calls of the source. Rule as the data show it: active = GI50 up to about 1.1 µM and inactive = higher.

compound	target.or.test.system	val
CCCn1c(=O)c2ccccc2[n+]2c(-c3ccc([N+](=O)[O-])cc3)csc12	UACC-62	32.7 µM (inactive)
N#Cc1nn(C2OC(COC(=O)c3ccccc3)C(OC(=O)c3ccccc3)C2OC(=O)c2ccccc2)c2nc[nH]c(=O)c12 (centres undefined)	UACC-62	> 100 µM (inactive)
CC1(C)C(=O)/C=C\C(=O)C(C)(C)C(=O)/C=C\C(=O)C(C)(C)C(=O)/C=C\C(=O)C(C)(C)C(=O)/C=C\C1=O	UACC-62	21.9 µM (inactive)
O=C(CC(=O)c1ccccc1)CC(O)(c1ccccc1)c1ccccc1	UACC-62	3.21 µM (inactive)
Nc1ccn(C2C=C(CO)C(O)C2O)c(=O)c1 (centres undefined)	UACC-62	> 625 µM (inactive)

For each entry beneath this line, provide reported GI50.
1. Cc1c(-c2ccccc2)n[nH]c1NC1(C)C(=O)N(/N=C/c2ccccc2)N=C1c1ccccc1 (centres undefined)
2. CC(C)Cc1cccc(C(C)C)c1NC(=O)CCC(=O)N/N=C1\C(=N/NC(=O)CCC(=O)Nc2c(C(C)C)cccc2C(C)C)C(c2ccc3c(c2)OCO3)Oc2ccccc21 (centres undefined)
3. Cc1ccccc1/N=C/c1ccc(N(CCC#N)S(=O)(=O)c2ccccc2)cc1
4. CNc1ncnc2c1nnn2C

Key:
["> 100 µM (inactive)", "78.3 µM (inactive)", "> 100 µM (inactive)", "> 100 µM (inactive)"]
